Source of measurements: patent US12110289B2

- Test system: Lung cancer cell line NCI-H358 containing KRas G12C mutation
- assay_overview: Assay for cell proliferation (Cell-titer Glo, 5 days)
- Assay type: cell-based, human
- conditions: Homo sapiens, NCI-H358, 120 h, NCI-H358, 5 days, Cell-titer Glo; read-out: IC50 (nM), Inhibition of NCI-H358 Cell Proliferation
readout: IC50 (nM)

* C=CC(=O)N1CCN(c2nc(=O)n(-c3c(C(C)C)nc(NC)nc3C(C)C)c3nc(-c4ccccc4F)c(Cl)cc23)[C@@H](C)C1 | 9.2
* C=CC(=O)N1CCN(c2nc(=O)n(-c3c(C)cc(OC)nc3C(C)C)c3nc(-c4c(O)cccc4F)c(F)cc23)[C@@H](C)C1 | 35.9
* C=CC(=O)N1CCN(c2nc(=O)n(-c3ccc4scnc4c3C(C)C)c3nc(-c4ccccc4F)c(Cl)cc23)[C@@H](C)C1 | 20.1

---

Each item that follows carries a reported log10 of IC50.
- System: Lung cancer cell line NCI-H358 containing KRas G12C mutation
- assay_overview: Assay for cell proliferation (Cell-titer Glo, 5 days)
- Type: cell-based, human
- conditions: Homo sapiens, NCI-H358, 120 h, NCI-H358, 5 days, Cell-titer Glo; read-out: IC50 (nM), Inhibition of NCI-H358 Cell Proliferation
readout: log10 of IC50 (log10 of the value in nM)

* C=CC(=O)N1C[C@H](C)N(c2nc(=O)n(-c3c(C4CC4)nc(N4CCNCC4)nc3C3CC3)c3nc(-c4ccccc4F)c(F)cc23)C[C@H]1C [Compound 102] | 1.57
* C=CC(=O)N1CCN(c2nc(=O)n(-c3c(C(C)C)nc(C(F)(F)F)nc3C(C)C)c3nc(-c4c(N)cccc4F)c(F)cc23)[C@@H](C)C1 [Compound 118] | 1.60
* C=C(F)C(=O)N1C[C@H](C)N(c2nc(=O)n(-c3c(C4CC4)ncnc3C3CC3)c3nc(-c4c(N)cccc4F)c(Cl)cc23)C[C@H]1C [Compound 132] | 2.20
* C=CC(=O)N1C[C@H](C)N(c2nc(=O)n(-c3c(F)cc4c(ncn4C)c3C3CC3)c3nc(-c4c(N)cccc4F)c(F)cc23)C[C@H]1C (atropisomer, axis not shown) [Compound 179] | 2.59
* C=CC(=O)N1CCN(c2nc(=O)n(-c3c(C4CC4)ncnc3C3CC3)c3nc(-c4ccccc4F)c(Cl)cc23)C[C@@H]1CC#N [Compound 5] | 2.24
* C=CC(=O)N1C[C@H](C)N(c2nc(=O)n(-c3c(C4CC4)nc(N4CCNCC4)nc3C3CC3)c3nc(-c4c(N)cccc4F)c(F)cc23)C[C@H]1C [Compound 98] | 0.87
* C=CC(=O)N1CCN(c2nc(=O)n(-c3c(C(C)C)nc(OCCOC)nc3C(C)C)c3nc(-c4ccccc4F)c(Cl)cc23)[C@@H](C)C1 [Compound 32] | 0.93
* C=CC(=O)N1CCN(c2nc(=O)n(-c3c(C4CC4)nc(N4CCN(C)CC4)nc3C3CC3)c3nc(-c4c(O)cccc4F)c(Cl)cc23)[C@@H](C)C1 [Compound 89] | 0.18
* C=CC(=O)N1C[C@H](C)N(c2nc(=O)n(-c3c(C4CC4)ncnc3C3CC3)c3nc(-c4c(N)cccc4F)c(Cl)cc23)C[C@H]1C [Compound 126] | -0.22
* C=CC(=O)N1CCN(c2nc(=O)n(-c3c(C(C)C)ncnc3C(C)C)c3nc(-c4ccccc4F)c(Cl)cc23)C[C@@H]1CC#N [Compound 2] | 1.38
* C=CC(=O)N1[C@H](C)CN(c2nc(=O)n(-c3c(C4CC4)nc(C)nc3C3CC3)c3nc(-c4c(N)cccc4F)c(F)cc23)C[C@@H]1C [Compound 54] | 1.54
* C=CC(=O)N1CCN(c2nc(=O)n(-c3c(C(C)C)nc(OC4CN(C)C4)nc3C(C)C)c3nc(-c4ccccc4F)c(Cl)cc23)[C@@H](C)C1 [Compound 18] | 1.20
